# Tested on: Noggin (protein binding on small-molecule microarray)
# ASSAY METHOD TEXT: small molecules binding Noggin protein – biochemical, 635/667 nm fluorescence, primary screen (AID 1095);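 also: score merges 667 nm feature fluorescence with signal to noise over triplicate slides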
# CONDITION LABEL: 635 nm fluorescence, higher = more signal
REPORTED PROPERTY: composite z-score
Answer with a number only.

Recorded composite z-score of `CC(C)c1nc2cc(Br)ccc2c(=O)o1` , please.
0.0534

Recorded composite z-score of `Cc1ccc(N2C(=O)c3ccccc3[C@](C)(C(=O)NCCCN(C)C)[C@@H]2c2ccc(CO)cc2)nc1` , please.
-0.817

More entries:
Recorded composite z-score of O=C1C2C=CC(C(O)C3CCCCC3)N(n3cnnc3)C2C(=O)N1Cc1ccccc1 (stereo not given) , please.
0.915

Recorded composite z-score of `CCCC[C@H]1OB(O)C[C@H]2C1=C(COc1ccccc1)C[C@H]1C(=O)C=CC(=O)[C@H]12` , please.
0.592

Recorded composite z-score of `O=C(NCc1ccc(F)cc1)[C@H]1C[C@H]2C(=O)N3CCC[C@H]3C(=O)N2[C@H]1c1ccc(O)cc1` , please.
-0.139
